Molecular target: rat TIMP-1 (rat, UniProt P30120 24-217)
Sequence (P30120 24-217 limits assumed): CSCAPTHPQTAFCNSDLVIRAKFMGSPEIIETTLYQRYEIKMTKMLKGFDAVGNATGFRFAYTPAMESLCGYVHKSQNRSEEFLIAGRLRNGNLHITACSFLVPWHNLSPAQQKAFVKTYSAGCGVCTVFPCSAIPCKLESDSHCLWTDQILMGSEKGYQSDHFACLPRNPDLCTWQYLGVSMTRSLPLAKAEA
Experiment: SPR (BIAcore), TIMP-1 coupled to chip, monovalent Fab
Description: For affinity determination, monomeric fractions of affinity and SEC purified Fab fragments or purified IgG1 molecules were used. All experiments were conducted in HBS buffer at a flow rate of 20 μl/min at 25° C. on a BIAcore™ instrument. Antigens in 100 mM sodium acetate pH 5.0 were coupled to a CM 5 sensor chip using standard EDC-NHS coupling chemistry. […] All sensograms were fitted globally using BIA evaluation software. […]
Recorded Endpoint: Kd

Kd recorded for this binder, MS-BW-61 (Fab, V domains shown, Fab, FLAG + Strep-tag II; not tied by name) VH: QVQLVQSGAEVKKPGESLKISCKGSGYSFTSYWIGWVRQMPGKGLEWMGIIYPGDSDTRYSPSFQGQVTISADKSISTAYLQWSSLKASDTAMYYCARIIGDYVIFFDVWGQGTLVTVSS VL: DIALTQPASVSGSPGQSITISCTGTSSDVGGYNYVSWYQQHPGKAPKLMIYDVSNRPSGVSNRFSGSKSGNTASLTISGLQAEDEADYYCQSFDMIHPYVFGGGTKLTVLG , is ~51 nM

Recorded Kd (binder MS-BW-18 (Fab, V domains shown, Fab, FLAG + Strep-tag II; not tied by name) VH: QVQLVQSGAEVKKPGESLKISCKGSGYSFTSYWIGWVRQMPGKGLEWMGIIYPGDSDTRYSPSFQGQVTISADKSISTAYLQWSSLKASDTAMYYCARLVGGGYDLMFDSWGQGTLVTVSS VL: DIALTQPASVSGSPGQSITISCTGTSSDVGGYNYVSWYQQHPGKAPKLMIYDVSNRPSGVSNRFSGSKSGNTASLTISGLQAEDEADYYCQSYDDMQFVFGGGTKLTVLG ): ~153 nM

Memo: MS-BW-20 (Fab, V domains shown, Fab, FLAG + Strep-tag II; not tied by name) VH: QVQLVQSGAEVKKPGSSVKVSCKASGGTFSSYAISWVRQAPGQGLEWMGGIIPIFGTANYAQKFQGRVTITADESTSTAYMELSSLRSEDTAVYYCARSGYLDYWGQGTLVTVSS VL: DIALTQPASVSGSPGQSITISCTGTSSDVGGYNYVSWYQQHPGKAPKLMIYDVSNRPSGVSNRFSGSKSGNTASLTISGLQAEDEADYYCQSYDYYDYGVFGGGTKLTVLG , reported Kd: ~70 nM

Short answer for MS-BW-63 (Fab, V domains shown, Fab, FLAG + Strep-tag II; not tied by name) VH: QVQLVQSGAEVKKPGESLKISCKGSGYSFTSYWIGWVRQMPGKGLEWMGIIYPGDSDTRYSPSFQGQVTISADKSISTAYLQWSSLKASDTAMYYCARILTGHVLLFDYWGQGTLVTVSS VL: DIALTQPASVSGSPGQSITISCTGTSSDVGGYNYVSWYQQHPGKAPKLMIYDVSNRPSGVSNRFSGSKSGNTASLTISGLQAEDEADYYCQSDNPYLVFGGGTKLTVLG : Kd was ~14 nM

Documented Kd of MS-BW-36 (Fab, V domains shown, Fab, FLAG + Strep-tag II; not tied by name) VH: QVQLVQSGAEVKKPGESLKISCKGSGYSFTSYWIGWVRQMPGKGLEWMGIIYPGDSDTRYSPSFQGQVTISADKSISTAYLQWSSLKASDTAMYYCARYRYPHMFDFWGQGTLVTVSS VL: DIELTQPPSVSVAPGQTARISCSGDALGDKYASWYQQKPGQAPVLVIYDDSDRPSGIPERFSGSNSGNTATLTISGTQAEDEADYYCQSYDLRYSHVFGGGTKLTVLG : ~42 nM

// Kd value for MS-BW-59 (Fab, V domains shown, Fab, FLAG + Strep-tag II; not tied by name) VH: QVQLVQSGAEVKKPGESLKISCKGSGYSFTSYWIGWVRQMPGKGLEWMGIIYPGDSDTRYSPSFQGQVTISADKSISTAYLQWSSLKASDTAMYYCARLRVHDYAMYFDLWGQGTLVTVSS VL: DIALTQPASVSGSPGQSITISCTGTSSDVGGYNYVSWYQQHPGKAPKLMIYDVSNRPSGVSNRFSGSKSGNTASLTISGLQAEDEADYYCQSYDIMPERVFGGGTKLTVLG : ~15 nM

Quick note, Kd for MS-BW-55 (Fab, V domains shown, Fab, FLAG + Strep-tag II; not tied by name) VH: QVQLVQSGAEVKKPGSSVKVSCKASGGTFSSYAISWVRQAPGQGLEWMGWINPNSGGTNYAQKFQGRVTMTRDTSISTAYMELSSLRSEDTAVYYCARITYIGYDFWGQGTLVTVSS VL: DIALTQPASVSGSPGQSITISCTGTSSDVGGYNYVSWYQQHPGKAPKLMIYDVSNRPSGVSNRFSGSKSGNTASLTISGLQAEDEADYYCQSRDLYYVYYVFGGGTKLTVLG landed at ~23 nM

# binder MS-BW-57 (Fab, V domains shown, Fab, FLAG + Strep-tag II; not tied by name) VH: QVQLVQSGAEVKKPGESLKISCKGSGYSFTSYWIGWVRQMPGKGLEWMGIIYPGDSDTRYSPSFQGQVTISADKSISTAYLQWSSLKASDTAMYYCARLYPEDLIYFDYWGQGTLVTVSS VL: DIALTQPASVSGSPGQSITISCTGTSSDVGGYNYVSWYQQHPGKAPKLMIYDVSNRPSGVSNRFSGSKSGNTASLTISGLQAEDEADYYCQSWDVQTDKVFGGGTKLTVLG ; its Kd = ~39 nM

// sample MS-BW-37 (Fab, V domains shown, Fab, FLAG + Strep-tag II; not tied by name) VH: QVQLVQSGAEVKKPGESLKISCKGSGYSFTSYWIGWVRQMPGKGLEWMGIIYPGDSDTRYSPSFQGQVTISADKSISTAYLQWSSLKASDTAMYYCARLFAGLELYFDYWGQGTLVTVSS VL: DIALTQPASVSGSPGQSITISCTGTSSDVGGYNYVSWYQQHPGKAPKLMIYDVSNRPSGVSNRFSGSKSGNTASLTISGLQAEDEADYYCQSYDLRNRVFGGGTKLTVLG , its Kd was 10 nM

Quick note, Kd for MS-BW-23 (Fab, V domains shown, Fab, FLAG + Strep-tag II; not tied by name) VH: QVQLVQSGAEVKKPGASVKVSCKASGYTFTSYYMHWVRQAPGQGLEWMGWINPNSGGTNYAQKFQGRVTMTRDTSISTAYMELSSLRSEDTAVYYCARIMWSDYGQLVKGGDIWGQGTLVTVSS VL: DIALTQPASVSGSPGQSITISCTGTSSDVGGYNYVSWYQQHPGKAPKLMIYDVSNRPSGVSNRFSGSKSGNTASLTISGLQAEDEADYYCQSYDVFPINRVFGGGTKLTVLG landed at ~207 nM
